Exercise: for every item that follows, state its recorded TGI.
tested on: SF-295 CNS; assay: NCI tumour cell line growth inhibition, 48 h

The value of TGI measured for the compound O=c1nc(N2CCN(c3ccccc3)CC2)ccn1C1OC(CO)C(O)C1O (stereo not given) turned out to be > 100 µM

The value of TGI measured for the compound "N#C/C(=C1C=C/C(=N/O)C(Br)=C/1)c1ccccc1" turned out to be 8.47 µM

The value of TGI measured for the compound "Nc1ccc2nc(-c3ccccn3)c(-c3ccccn3)nc2c1" turned out to be > 100 µM

The value of TGI measured for the compound "COc1ccc2[nH]c3c(C)c4c(c(C)c3c2c1)CN(C)CC4" turned out to be 32.9 µM

The value of TGI measured for the compound COC(=O)C(/C(=N/NC(N)=O)C(=O)Nc1ccc(C)cc1)c1nc2ccc([N+](=O)[O-])cc2[nH]c1=O (stereo not given) turned out to be > 100 µM

The value of TGI measured for the compound "CCOC(=O)c1csc(NC(=O)CCN(CC)CC)n1" turned out to be > 100 µM

The value of TGI measured for the compound CSc1nc(Cl)c2c(n1)Sc1nc3cc4c(cc3n1C2O)OCCO4 (stereo not given) turned out to be 38.5 µM

The value of TGI measured for the compound O=C1C=CC(=Nc2ccc3c(c2)C(Br)c2ccccc2-3)O1 (stereo not given) turned out to be > 100 µM

The value of TGI measured for the compound "Oc1ccc(/C=C/c2cc(O)cc(O)c2)cc1" turned out to be > 100 µM

The value of TGI measured for the compound "Cc1cc2c(cc1C)[n+](=O)c(C(=O)CC(=O)C(=O)Nc1c(C(C)C)cccc1C(C)C)c(C)n2[O-]" turned out to be > 100 µM
